All values here come from ChEMBL document CHEMBL5223119.

For each of the compounds below, state its Tmax.
- Assay details: Tmax in rat at 5 mg/kg,IG measured upto 24 hrs by LC-MS/MS analysis
- Type: ADME, organism-based
- Assay conditions: in vivo, po
// note: answer is a bare numeric in h

q: Fill in: Tmax of CN1CCC2(CC1)CCN(c1ccc(Nc3ncc4cc(C5CC5)n(-c5cccc(C(C)(C)O)n5)c4n3)cc1)CC2 is ___
a: 4.8

q: Fill in: Tmax of CN1CCN(c2ccc(Nc3ncc4cc(C5CC5)n(-c5cccc(N=S(C)(C)=O)n5)c4n3)cc2)CC1 is ___
a: 0.92

q: Fill in: Tmax of CN1CCN(C2CCN(c3ccc(Nc4ncc5c(F)c(C6CC6)n(-c6cccc(C(C)(C)O)n6)c5n4)cc3)CC2)CC1 is ___
a: 6

q: Fill in: Tmax of CN1CCN(C2CCN(c3ccc(Nc4ncc5c(F)c(C6CC6)n(-c6cccc(C(C)(C)O)n6)c5n4)cc3F)CC2)CC1 is ___
a: 6.7

---

- System: NCI-H1299
- Assay details: Antiproliferative activity against human NCI-H1299 cells assessed as cell growth inhibition incubated for 3 days by CellTiter-Glo Luminescent assay
- Type: functional, cell-based
- Assay conditions: NCI-H1299, 72 h
Exam item: assign 1 to entries whose IC50 is below 100 nM and -1 to entries at or above 100 nM. Note that a value of exactly 100 nM receives -1.

q: I'd appreciate it if you could check whether Cc1cc2cnc(Nc3ccc(N4CCN(C)CC4)cc3)nc2n1-c1cccc(N=S(C)(C)=O)n1 has IC50 smaller than 100 nM.
a: 1

q: I'd appreciate it if you could check whether CN1CCC2(CC1)CCN(c1ccc(Nc3ncc4cc(C5CC5)n(-c5cccc(C(C)(C)O)n5)c4n3)cc1)CC2 has IC50 smaller than 100 nM.
a: -1

q: I'd appreciate it if you could check whether CCCc1c(F)c2cnc(Nc3ccc(N4CCN(C)CC4)cc3)nc2n1-c1cccc(N=S(C)(C)=O)n1 has IC50 smaller than 100 nM.
a: 1

q: I'd appreciate it if you could check whether CCCc1cc2cnc(Nc3ccc(N4CCN(C)CC4)cc3)nc2n1-c1cccc(C(C)(C)O)n1 has IC50 smaller than 100 nM.
a: -1

q: I'd appreciate it if you could check whether CN1CCN(c2ccc(Nc3ncc4c(F)c(C5CC5)n(-c5cccc(C(C)(C)O)n5)c4n3)cc2)CC1 has IC50 smaller than 100 nM.
a: -1
